# ASSAY DETAILS: physchem
# RECORDED CONDITIONS: octan-1-ol/water, pH 7.4, LogD7.4

COMPOUND: CCCC(=O)C1(c2ccccc2)CCN(C(=O)[C@@H](Cc2ccc(OC)cc2)NC(=O)[C@@H](N)Cc2cncn2C)CC1
logD: 2.51
--
COMPOUND: Cc1ccc2c(c1)c(-c1ccnc3cc(C(F)(F)F)ccc13)c(C)n2CC(=O)O
logD: 1.78
--
COMPOUND: CC(=O)Nc1ccc(O)cc1 [ACETAMINOPHEN]
logD: 0.25
--
COMPOUND: Nc1ncnc2c1ncn2[C@@H]1O[C@H](CSCCCNC(=O)NCc2ccccc2)[C@@H](O)[C@H]1O
logD: 0.9
--
COMPOUND: CN1CCN([C@H]2C[C@@H](c3nc(-c4ccc5ccc(-c6ccccc6)nc5c4)c4c(N)nccn43)C2)CC1
logD: 3.2
--
COMPOUND: CCOc1ccccc1-c1ccc(-c2nc3ccc(F)cc3c(C(=O)O)c2C)cc1
logD: 1.18
--
COMPOUND: N#Cc1ccc2ccc(=O)n(CCN3CC[C@@H](NCc4cc5c(cn4)OCCO5)[C@@H](O)C3)c2c1
logD: 0.45
--
COMPOUND: CN(C)CCNCc1ccc(Nc2ncc3cc(-c4ccncc4)ccc3n2)cc1
logD: 1.4
--
COMPOUND: CCn1cc(NC(=O)Cc2ccc(Oc3ccnc4cc(F)ccc34)cc2OC)cn1
logD: 3.93

---

log10(solubility thermodynamic) values by entry
# ASSAY DETAILS: physchem
# RECORDED CONDITIONS: pH 7.4 buffer
ATTRIBUTE MEASURED: log10(solubility thermodynamic) (log10 of the value in µM)

STRUCTURE SMILES: O=C(Cc1ccccc1)Nc1ccc(N2CCCC2)cc1
log10(solubility thermodynamic): 0.04
--
STRUCTURE SMILES: CCOC(=O)Cc1csc(NS(=O)(=O)c2ccc(Cl)cc2)n1
log10(solubility thermodynamic): 2.62
--
STRUCTURE SMILES: COCCOc1nc(N)c2[nH]c(=O)n(Cc3cccc(CC(=O)OC)c3)c2n1
log10(solubility thermodynamic): 1.34
--
STRUCTURE SMILES: CCc1cc(NC(=O)Cc2ccc(Oc3ccnc4cc(OC)ccc34)cc2OC)n[nH]1
log10(solubility thermodynamic): 0.93
--
STRUCTURE SMILES: NC(=O)c1ccccc1NC(=O)Nc1ccc(Cl)c(Cl)c1
log10(solubility thermodynamic): 0.18
--
STRUCTURE SMILES: COc1cc2c(Nc3cc(CC(=O)Nc4cccc(F)c4)[nH]n3)ncnc2cc1OCCCN1CCC[C@@H]1CO
log10(solubility thermodynamic): 2.21
--
STRUCTURE SMILES: CN1CCC(Oc2cccc3ncnc(Nc4ccc(OCc5cscn5)c(Cl)c4)c23)CC1
log10(solubility thermodynamic): 0.69
--
STRUCTURE SMILES: N#Cc1cnn(-c2ccccc2)c1NC(=O)CN1CCOCC1
log10(solubility thermodynamic): 3.01
--
STRUCTURE SMILES: COc1cc2c(Nc3ccc(NC(=O)c4ccccc4)cc3)ncnc2cc1OCCCN1CCOCC1
log10(solubility thermodynamic): 0.40
--
STRUCTURE SMILES: Cc1ccc2c(c1)-c1ccccc1S(=O)(=O)N2
log10(solubility thermodynamic): 2.80
--
STRUCTURE SMILES: O=C(NNc1nc2ccccc2o1)c1ccccc1
log10(solubility thermodynamic): 2.11

---

# ASSAY DETAILS: in vitro
# RECORDED CONDITIONS: human, plasma, PPB
# note: boundary value 0.02 maps to NO; fraction unbound at 5 h below it maps to YES

COMPOUND: COC[C@H](O)Cn1c(=O)cnn(-c2ccc(Cl)c(C(=O)NCC3(O)CCCCCC3)c2)c1=O [CE-224535]
LABEL: NO
//
COMPOUND: CN(C)c1cc(NC(=O)Nc2cccc(Cl)c2)c2ccccc2n1
LABEL: YES
//
COMPOUND: CCOc1cc2nnc(C(N)=O)c(Nc3ccc(C)cc3F)c2cc1N1CCN(C)CC1
LABEL: YES
//
COMPOUND: Cc1cn([C@H]2CCCN([C@@H](C)c3ccc(C(=O)O)c(Oc4cccc(Cl)c4)c3)C2)c(=O)[nH]c1=O
LABEL: NO
//
COMPOUND: COc1ccc(S(=O)(=O)N2CCC[C@H](n3cc(C)c(=O)[nH]c3=O)C2)cc1Oc1cccc(Cl)c1
LABEL: NO
//
COMPOUND: N#Cc1c(-c2ccc(-c3ccccc3O)cc2)nc2ccncc2c1O
LABEL: YES
//
COMPOUND: C[C@H](CO)Nc1nc(SCc2cccc(F)c2F)nc2[nH]c(=O)cnc12
LABEL: YES
//
COMPOUND: CC(C)(C)NS(=O)(=O)c1cncc(-c2ccc3nc(NC(=O)NCC(=O)N4CCCC4)nn3c2)c1
LABEL: NO
//
COMPOUND: Cc1ccc(-c2csc3ncnc(O)c23)cc1
LABEL: NO
//
COMPOUND: O=C(NS(=O)(=O)c1ccc(F)cc1)N1CCC(N2CCC(Oc3ccc(Cl)c(Cl)c3)CC2)CC1
LABEL: NO
//
COMPOUND: O=c1cc(-c2ccccc2)ccn1-c1ccc2c(cnn2CCN2CCCC2)c1
LABEL: NO
//
COMPOUND: O=C(C1CCN(c2nnc(-n3cccc3)s2)CC1)N1CCN(Cc2ccc3c(c2)OCO3)CC1
LABEL: NO
//
COMPOUND: CC(C)(Cc1cccc(CC(=O)NCc2cccc(-c3ccc(O)cc3)c2)c1)NC[C@H](O)c1ccc(O)c(NS(C)(=O)=O)c1 [PF-00610355]
LABEL: YES
//
COMPOUND: C[C@@H]1C[C@H]2[C@@H]3CCC4=CC(=O)C=C[C@]4(C)[C@@]3(Cl)[C@@H](O)C[C@]2(C)[C@@]1(OC(=O)c1ccco1)C(=O)CCl [MOMETASONE FUROATE]
LABEL: YES
//
COMPOUND: COc1ccc(CC(C)(C)NC[C@H](O)c2cc(O)cc3c2OCC(=O)N3)cc1 [OLODATEROL]
LABEL: NO
//
COMPOUND: Cc1cc(Nc2nc(O[C@@H](C)c3ncc(F)cn3)ncc2Cl)[nH]n1
LABEL: NO
//
COMPOUND: Cc1ccc(S(=O)(=O)N(C)C(=O)N2CCC(N3CCC(Oc4ccc(Cl)c(Cl)c4)CC3)CC2)cc1
LABEL: YES

---

# hepatocyte CLint values compiled below
# ASSAY DETAILS: in vitro
# RECORDED CONDITIONS: hepatocytes

COMPOUND: CCOc1ccc2ccc(=O)oc2c1
UNIT: µL/min/1e6 cells
SIGN QUALIFIER: =
hepatocyte CLint: 64.6
//
COMPOUND: Nc1nc2ccc(-c3ccncc3)cc2s1
UNIT: µL/min/1e6 cells
SIGN QUALIFIER: =
hepatocyte CLint: 29.5
//
COMPOUND: C[C@@](C(=O)O[C@H]1C[N+]2(CCc3ccccc3)CCC1CC2)(c1ccccc1)N1CCCCC1
UNIT: µL/min/1e6 cells
SIGN QUALIFIER: =
hepatocyte CLint: 76
//
COMPOUND: CN(C)CC[C@H](CSc1ccccc1)Nc1ccc(S(=O)(=O)NC(=O)c2ccc(N3CCN(Cc4ccccc4-c4ccc(Cl)cc4)CC3)cc2)cc1[N+](=O)[O-]
UNIT: µL/min/1e6 cells
SIGN QUALIFIER: =
hepatocyte CLint: 9.55
//
COMPOUND: COc1cnc(-c2ccccn2)nc1N(C)c1ccccc1
UNIT: µL/min/1e6 cells
SIGN QUALIFIER: >
hepatocyte CLint: 150
//
COMPOUND: Cc1ccc(S(=O)(=O)Nc2c(C(=O)N[C@@H](C)C(C)(C)C)c(C)nn2C2CCCCC2)cc1
UNIT: µL/min/1e6 cells
SIGN QUALIFIER: =
hepatocyte CLint: 8
//
COMPOUND: C[C@@H]1C[C@H]2[C@@H]3CCC4=CC(=O)C=C[C@]4(C)[C@@]3(F)[C@@H](O)C[C@]2(C)[C@@]1(O)C(=O)CO
UNIT: µL/min/1e6 cells
SIGN QUALIFIER: =
hepatocyte CLint: 31
//
COMPOUND: NCCc1ccc(O)c2nc(O)sc12
UNIT: µL/min/1e6 cells
SIGN QUALIFIER: >
hepatocyte CLint: 150
//
COMPOUND: NC(=O)c1ccc(N(C(N)=O)c2c(F)cccc2F)nc1-c1ccc(F)cc1F
UNIT: µL/min/1e6 cells
SIGN QUALIFIER: <
hepatocyte CLint: 3
//
COMPOUND: Cc1ccc(S(=O)(=O)Nc2c(C(=O)N[C@@H](C)C(C)(C)C)c(C(F)(F)F)nn2-c2ccccc2)cc1
UNIT: µL/min/1e6 cells
SIGN QUALIFIER: =
hepatocyte CLint: 18.8
//
COMPOUND: CC(C)N(CCNCCc1ccc(O)c2[nH]c(=O)sc12)C(=O)CCOCCc1ccccc1
UNIT: µL/min/1e6 cells
SIGN QUALIFIER: =
hepatocyte CLint: 99
//
COMPOUND: CC[C@H](C)C(=O)O[C@H]1C[C@H](O)C=C2C=C[C@H](C)[C@H](CC[C@@H](O)C[C@@H](O)CC(=O)O)[C@H]21
UNIT: µL/min/1e6 cells
SIGN QUALIFIER: =
hepatocyte CLint: 27
//
COMPOUND: CC(C)CNc1nc(N2CCN(CC3CCCOC3)CC2)ncc1C(=O)NCc1ccccc1 (configuration not stated)
UNIT: µL/min/1e6 cells
SIGN QUALIFIER: =
hepatocyte CLint: 89.1
//
COMPOUND: Nc1ncnc2c1ncn2[C@@H]1O[C@H](CSCCCNC(=O)Nc2ccc(Cl)cc2)[C@@H](O)[C@H]1O
UNIT: µL/min/1e6 cells
SIGN QUALIFIER: =
hepatocyte CLint: 93.3
//
COMPOUND: CO[C@H]1CC[C@]2(CC1)Cc1ccc(-c3cc(Cl)cc(C#N)c3)cc1C21N=C(C)C(N)=N1 (some centres not stated)
UNIT: µL/min/1e6 cells
SIGN QUALIFIER: =
hepatocyte CLint: 12.6
//
COMPOUND: Cc1ccc(C)c(OCCCC(C)(C)C(=O)O)c1
UNIT: µL/min/1e6 cells
SIGN QUALIFIER: >
hepatocyte CLint: 150
//
COMPOUND: COc1ccnc(CCc2nc3ncccc3[nH]2)c1
UNIT: µL/min/1e6 cells
SIGN QUALIFIER: =
hepatocyte CLint: 18.9
//
COMPOUND: Cc1cn([C@H]2CCCN([C@H](CC(C)C)c3ccc(C(=O)O)c(Oc4cccc(Cl)c4)c3)C2)c(=O)[nH]c1=O
UNIT: µL/min/1e6 cells
SIGN QUALIFIER: =
hepatocyte CLint: 9.12
//
COMPOUND: CC(NC(=O)c1cc(O)nc2ccccc12)c1ccccc1 (configuration not stated)
UNIT: µL/min/1e6 cells
SIGN QUALIFIER: =
hepatocyte CLint: 5.25
//
COMPOUND: CC[C@@H](Nc1c(Nc2cccc(C(=O)N(C)C)c2O)c(=O)c1=O)c1ccccc1
UNIT: µL/min/1e6 cells
SIGN QUALIFIER: =
hepatocyte CLint: 65
//
COMPOUND: C[C@H]1C[C@@H]2[C@H]([C@@H](O)C[C@@]3(C)[C@H]2CC[C@]3(O)C(=O)CO)[C@@]2(C)C=CC(=O)C=C12
UNIT: µL/min/1e6 cells
SIGN QUALIFIER: >
hepatocyte CLint: 150
//
COMPOUND: C[C@@](C(=O)O[C@H]1C[N+]2(CCc3ccccc3F)CCC1CC2)(c1ccccc1)N1CCCCC1
UNIT: µL/min/1e6 cells
SIGN QUALIFIER: =
hepatocyte CLint: 130
//
COMPOUND: C[C@@](C(=O)O[C@H]1C[N+]2(CCOCCc3ccccc3)CCC1CC2)(c1ccccc1)N1CCCCC1
UNIT: µL/min/1e6 cells
SIGN QUALIFIER: =
hepatocyte CLint: 77
//
COMPOUND: Cc1ccc(-c2nc3ccccc3[nH]2)cc1NC(=O)c1ccc(OCc2ccccn2)cc1
UNIT: µL/min/1e6 cells
SIGN QUALIFIER: =
hepatocyte CLint: 10.2
//
COMPOUND: NC1(c2ccc(-c3nn4ccnc4cc3-c3ccccc3)cc2)CCC1
UNIT: µL/min/1e6 cells
SIGN QUALIFIER: >
hepatocyte CLint: 150
//
COMPOUND: C[C@@H](O)[C@H]1C(=O)N2C(C(=O)OCOC(=O)C(C)(C)C)=C(SC3CN(C4=NCCS4)C3)[C@H](C)[C@H]12
UNIT: µL/min/1e6 cells
SIGN QUALIFIER: >
hepatocyte CLint: 150
//
COMPOUND: CC(C)(C)NC(=O)c1ccc(Oc2cc(F)c(CC(=O)O)cc2Cl)c(NS(=O)(=O)c2ccc(C3CC3)cc2Cl)c1
UNIT: µL/min/1e6 cells
SIGN QUALIFIER: =
hepatocyte CLint: 6
